assay: Antitumor activity against mouse EAC cells assessed as non viable cells at 50 ug/mL after 2 hrs by trypan blue exclusion test; type: functional, Ehrlich
property: Activity (%)

INSERT INTO measurements (compound, unitspec, obsvalue) VALUES
  ('COc1ccccc1C1C(C#N)=C(N)N(c2ccc(S(N)(=O)=O)cc2)C2=C1C(=O)CCC2 (centres undefined)', '%', 0),
  ('N#CC1=C(N)N(c2ccc(S(N)(=O)=O)cc2)C2=C(C(=O)CCC2)C1c1ccccc1 (centres undefined)', '%', 40),
  ('N#CC1=C(N)N(c2ccc(S(N)(=O)=O)cc2)C2=C(C(=O)CCC2)C1c1ccc(Cl)cc1Cl (centres undefined)', '%', 65),
  ('COc1cccc2c1C(=O)c1c(O)c3c(c(O)c1C2=O)C[C@@](O)(C(=O)CO)C[C@@H]3O[C@H]1C[C@H](N)[C@H](O)[C@H](C)O1', '%', 60),
  ('N#CC1=C(N)N(c2ccc(S(N)(=O)=O)cc2)C2=C(C(=O)CCC2)C1c1c(O)ccc2ccccc12 (centres undefined)', '%', 5),
  ('N#CC1=C(N)N(c2ccc(S(N)(=O)=O)cc2)C2=C(C(=O)CCC2)C1c1ccc([N+](=O)[O-])cc1 (centres undefined)', '%', 95),
  ('N#CC1=C(N)N(c2ccc(S(N)(=O)=O)cc2)C2=C(C(=O)CCC2)C1c1cccc([N+](=O)[O-])c1 (centres undefined)', '%', 73),
  ('Cc1ccc(C2C(C#N)=C(N)N(c3ccc(S(N)(=O)=O)cc3)C3=C2C(=O)CCC3)o1 (centres undefined)', '%', 40),
  ('N#CC1=C(N)N(c2ccc(S(N)(=O)=O)cc2)C2=C(C(=O)CCC2)C1c1ccco1 (centres undefined)', '%', 5),
  ('N#CC1=C(N)N(c2ccc(S(N)(=O)=O)cc2)C2=C(C(=O)CCC2)C1c1cccs1 (centres undefined)', '%', 88),
  ('N#CC1=C(N)N(c2ccc(S(N)(=O)=O)cc2)C2=C(C(=O)CCC2)C1/C=C/c1ccccc1 (centres undefined)', '%', 40),
  ('Cc1ccc(C2C(C#N)=C(N)N(c3ccc(S(N)(=O)=O)cc3)C3=C2C(=O)CCC3)cc1 (centres undefined)', '%', 50),
  ('COc1cc(C2C(C#N)=C(N)N(c3ccc(S(N)(=O)=O)cc3)C3=C2C(=O)CCC3)ccc1O (centres undefined)', '%', 90),
  ('COc1ccc2ccccc2c1C1C(C#N)=C(N)N(c2ccc(S(N)(=O)=O)cc2)C2=C1C(=O)CCC2 (centres undefined)', '%', 70),
  ('COc1ccc(C2C(C#N)=C(N)N(c3ccc(S(N)(=O)=O)cc3)C3=C2C(=O)CCC3)cc1 (centres undefined)', '%', 90),
  ('COc1ccc(C2C(C#N)=C(N)N(c3ccc(S(N)(=O)=O)cc3)C3=C2C(=O)CCC3)c2ccccc12 (centres undefined)', '%', 30),
  ('N#CC1=C(N)N(c2ccc(S(N)(=O)=O)cc2)C2=C(C(=O)CCC2)C1c1ccc(O)cc1 (centres undefined)', '%', 100),
  ('CCOc1cc(C2C(C#N)=C(N)N(c3ccc(S(N)(=O)=O)cc3)C3=C2C(=O)CCC3)ccc1OC (centres undefined)', '%', 70),
  ('COc1cc(OC)c(C2C(C#N)=C(N)N(c3ccc(S(N)(=O)=O)cc3)C3=C2C(=O)CCC3)cc1OC (centres undefined)', '%', 100);

###

assay: Antitumor activity against mouse EAC cells assessed as non viable cells at 10 ug/mL after 2 hrs by trypan blue exclusion test; format: functional, Ehrlich
Each item that follows carries a reported Activity.
property: Activity (%)

INSERT INTO results (molecule, obsvalue) VALUES
  ('N#CC1=C(N)N(c2ccc(S(N)(=O)=O)cc2)C2=C(C(=O)CCC2)C1c1cccs1 (centres undefined)', 70),
  ('COc1cc(C2C(C#N)=C(N)N(c3ccc(S(N)(=O)=O)cc3)C3=C2C(=O)CCC3)ccc1O (centres undefined)', 0),
  ('COc1ccc(C2C(C#N)=C(N)N(c3ccc(S(N)(=O)=O)cc3)C3=C2C(=O)CCC3)cc1 (centres undefined)', 30),
  ('COc1ccccc1C1C(C#N)=C(N)N(c2ccc(S(N)(=O)=O)cc2)C2=C1C(=O)CCC2 (centres undefined)', 0),
  ('N#CC1=C(N)N(c2ccc(S(N)(=O)=O)cc2)C2=C(C(=O)CCC2)C1/C=C/c1ccccc1 (centres undefined)', 2),
  ('N#CC1=C(N)N(c2ccc(S(N)(=O)=O)cc2)C2=C(C(=O)CCC2)C1c1c(O)ccc2ccccc12 (centres undefined)', 0),
  ('N#CC1=C(N)N(c2ccc(S(N)(=O)=O)cc2)C2=C(C(=O)CCC2)C1c1ccccc1 (centres undefined)', 10),
  ('N#CC1=C(N)N(c2ccc(S(N)(=O)=O)cc2)C2=C(C(=O)CCC2)C1c1ccco1 (centres undefined)', 0),
  ('COc1ccc2ccccc2c1C1C(C#N)=C(N)N(c2ccc(S(N)(=O)=O)cc2)C2=C1C(=O)CCC2 (centres undefined)', 40),
  ('N#CC1=C(N)N(c2ccc(S(N)(=O)=O)cc2)C2=C(C(=O)CCC2)C1c1ccc([N+](=O)[O-])cc1 (centres undefined)', 85),
  ('CCOc1cc(C2C(C#N)=C(N)N(c3ccc(S(N)(=O)=O)cc3)C3=C2C(=O)CCC3)ccc1OC (centres undefined)', 50),
  ('N#CC1=C(N)N(c2ccc(S(N)(=O)=O)cc2)C2=C(C(=O)CCC2)C1c1ccc(O)cc1 (centres undefined)', 90),
  ('N#CC1=C(N)N(c2ccc(S(N)(=O)=O)cc2)C2=C(C(=O)CCC2)C1c1cccc([N+](=O)[O-])c1 (centres undefined)', 42),
  ('Cc1ccc(C2C(C#N)=C(N)N(c3ccc(S(N)(=O)=O)cc3)C3=C2C(=O)CCC3)o1 (centres undefined)', 2),
  ('Cc1ccc(C2C(C#N)=C(N)N(c3ccc(S(N)(=O)=O)cc3)C3=C2C(=O)CCC3)cc1 (centres undefined)', 30),
  ('COc1ccc(C2C(C#N)=C(N)N(c3ccc(S(N)(=O)=O)cc3)C3=C2C(=O)CCC3)c2ccccc12 (centres undefined)', 10),
  ('N#CC1=C(N)N(c2ccc(S(N)(=O)=O)cc2)C2=C(C(=O)CCC2)C1c1ccc(Cl)cc1Cl (centres undefined)', 40),
  ('COc1cc(OC)c(C2C(C#N)=C(N)N(c3ccc(S(N)(=O)=O)cc3)C3=C2C(=O)CCC3)cc1OC (centres undefined)', 40),
  ('COc1cccc2c1C(=O)c1c(O)c3c(c(O)c1C2=O)C[C@@](O)(C(=O)CO)C[C@@H]3O[C@H]1C[C@H](N)[C@H](O)[C@H](C)O1', 20);

###

experiment: Antitumor activity against mouse EAC cells assessed as non viable cells at 100 ug/mL after 2 hrs by trypan blue exclusion test; format: functional, Ehrlich
property: Activity (%)

INSERT INTO measurements (compound, property, obsvalue) VALUES
  ('COc1ccc(C2C(C#N)=C(N)N(c3ccc(S(N)(=O)=O)cc3)C3=C2C(=O)CCC3)c2ccccc12 (centres undefined)', 'Activity', 90),
  ('Cc1ccc(C2C(C#N)=C(N)N(c3ccc(S(N)(=O)=O)cc3)C3=C2C(=O)CCC3)o1 (centres undefined)', 'Activity', 45),
  ('COc1cc(OC)c(C2C(C#N)=C(N)N(c3ccc(S(N)(=O)=O)cc3)C3=C2C(=O)CCC3)cc1OC (centres undefined)', 'Activity', 100),
  ('COc1ccccc1C1C(C#N)=C(N)N(c2ccc(S(N)(=O)=O)cc2)C2=C1C(=O)CCC2 (centres undefined)', 'Activity', 0),
  ('N#CC1=C(N)N(c2ccc(S(N)(=O)=O)cc2)C2=C(C(=O)CCC2)C1c1cccc([N+](=O)[O-])c1 (centres undefined)', 'Activity', 71),
  ('N#CC1=C(N)N(c2ccc(S(N)(=O)=O)cc2)C2=C(C(=O)CCC2)C1c1ccco1 (centres undefined)', 'Activity', 10),
  ('COc1cccc2c1C(=O)c1c(O)c3c(c(O)c1C2=O)C[C@@](O)(C(=O)CO)C[C@@H]3O[C@H]1C[C@H](N)[C@H](O)[C@H](C)O1 [DOXORUBICIN]', 'Activity', 100),
  ('COc1ccc(C2C(C#N)=C(N)N(c3ccc(S(N)(=O)=O)cc3)C3=C2C(=O)CCC3)cc1 (centres undefined)', 'Activity', 100),
  ('N#CC1=C(N)N(c2ccc(S(N)(=O)=O)cc2)C2=C(C(=O)CCC2)C1c1cccs1 (centres undefined)', 'Activity', 100),
  ('Cc1ccc(C2C(C#N)=C(N)N(c3ccc(S(N)(=O)=O)cc3)C3=C2C(=O)CCC3)cc1 (centres undefined)', 'Activity', 100),
  ('N#CC1=C(N)N(c2ccc(S(N)(=O)=O)cc2)C2=C(C(=O)CCC2)C1c1c(O)ccc2ccccc12 (centres undefined)', 'Activity', 15),
  ('COc1cc(C2C(C#N)=C(N)N(c3ccc(S(N)(=O)=O)cc3)C3=C2C(=O)CCC3)ccc1O (centres undefined)', 'Activity', 100),
  ('N#CC1=C(N)N(c2ccc(S(N)(=O)=O)cc2)C2=C(C(=O)CCC2)C1c1ccc(Cl)cc1Cl (centres undefined)', 'Activity', 95),
  ('N#CC1=C(N)N(c2ccc(S(N)(=O)=O)cc2)C2=C(C(=O)CCC2)C1/C=C/c1ccccc1 (centres undefined)', 'Activity', 45),
  ('N#CC1=C(N)N(c2ccc(S(N)(=O)=O)cc2)C2=C(C(=O)CCC2)C1c1ccc([N+](=O)[O-])cc1 (centres undefined)', 'Activity', 100),
  ('CCOc1cc(C2C(C#N)=C(N)N(c3ccc(S(N)(=O)=O)cc3)C3=C2C(=O)CCC3)ccc1OC (centres undefined)', 'Activity', 100),
  ('N#CC1=C(N)N(c2ccc(S(N)(=O)=O)cc2)C2=C(C(=O)CCC2)C1c1ccccc1 (centres undefined)', 'Activity', 40),
  ('COc1ccc2ccccc2c1C1C(C#N)=C(N)N(c2ccc(S(N)(=O)=O)cc2)C2=C1C(=O)CCC2 (centres undefined)', 'Activity', 80),
  ('N#CC1=C(N)N(c2ccc(S(N)(=O)=O)cc2)C2=C(C(=O)CCC2)C1c1ccc(O)cc1 (centres undefined)', 'Activity', 100);
